# SUBJECT_OF_TEST: Cytochrome P450 2C19 (Homo sapiens)
# METHOD: Cytochrome P450 Family 2 Subfamily C Member 19 (CYP2C19) small molecule antagonists: luciferase reporter qHTS assay (AID 1671197); also: nearly all actives have a fitted effect of over 65% in size; also: potency is read from the fitted curve at half-maximal effect
# CONDITION_DETAILS: P450-Glo CYP2C19 enzyme, luciferin luminescence, 1 h; series mostly up to 115 µM
Records with an inconclusive call do not appear. Calls of active or inactive are those of the source. Calls follow the shape of the dose curve; as a rule, active = well fitted inhibition curve with a large enough effect in the repeat runs; inconclusive = weak or mixed curves; inactive = no such curve, though single readings can be large or run the other way.

- COMPOUND: "CCN(CC)c1ccccc1"
  SUBJECT_OF_TEST: "Cytochrome P450 2C19 (Homo sapiens)"
  Potency: "inactive"
- COMPOUND: "O=[N+]([O-])c1ccc([As](=O)(O)O)cc1"
  SUBJECT_OF_TEST: "Cytochrome P450 2C19 (Homo sapiens)"
  Potency: "inactive"
- COMPOUND: "CC(Br)C(=O)O (stereo not given)"
  SUBJECT_OF_TEST: "Cytochrome P450 2C19 (Homo sapiens)"
  Potency: "45.3 µM (active)"
- COMPOUND: "COC(=O)c1ccccc1C(=O)OC"
  SUBJECT_OF_TEST: "Cytochrome P450 2C19 (Homo sapiens)"
  Potency: "71.4 µM (active)"
- COMPOUND: "CC(C)(C)OOC(=O)c1ccccc1"
  SUBJECT_OF_TEST: "Cytochrome P450 2C19 (Homo sapiens)"
  Potency: "inactive"
- COMPOUND: "[O-][Cl+2]([O-])O"
  SUBJECT_OF_TEST: "Cytochrome P450 2C19 (Homo sapiens)"
  Potency: "inactive"
- COMPOUND: "CC(Oc1ccc(Cl)cc1Cl)C(=O)O (stereo not given)"
  SUBJECT_OF_TEST: "Cytochrome P450 2C19 (Homo sapiens)"
  Potency: "35.7 µM (active)"
- COMPOUND: "COc1ccc2c3c1O[C@H]1[C@@H](O)C=C[C@H]4[C@@H](C2)N(C)CC[C@@]341"
  SUBJECT_OF_TEST: "Cytochrome P450 2C19 (Homo sapiens)"
  Potency: "inactive"
- COMPOUND: "O=NN1CCCCCCC1"
  SUBJECT_OF_TEST: "Cytochrome P450 2C19 (Homo sapiens)"
  Potency: "inactive"
- COMPOUND: "CCC12COCN1COC2"
  SUBJECT_OF_TEST: "Cytochrome P450 2C19 (Homo sapiens)"
  Potency: "35.6 µM (active)"
- COMPOUND: "CCCCCCCCCl"
  SUBJECT_OF_TEST: "Cytochrome P450 2C19 (Homo sapiens)"
  Potency: "inactive"
- COMPOUND: "O=c1[nH]c(=O)[nH]c(=O)[nH]1"
  SUBJECT_OF_TEST: "Cytochrome P450 2C19 (Homo sapiens)"
  Potency: "inactive"
- COMPOUND: "NCC(O)c1ccc(O)cc1 (stereo not given)"
  SUBJECT_OF_TEST: "Cytochrome P450 2C19 (Homo sapiens)"
  Potency: "inactive"
- COMPOUND: "CC(=O)C=C(C)C"
  SUBJECT_OF_TEST: "Cytochrome P450 2C19 (Homo sapiens)"
  Potency: "inactive"
- COMPOUND: "C[C@]12CC[C@H]3[C@@H](CC[C@@]45O[C@@H]4C(O)=C(C#N)C[C@]35C)[C@@H]1CC[C@@H]2O"
  SUBJECT_OF_TEST: "Cytochrome P450 2C19 (Homo sapiens)"
  Potency: "inactive"
- COMPOUND: "Cc1ccccc1O"
  SUBJECT_OF_TEST: "Cytochrome P450 2C19 (Homo sapiens)"
  Potency: "inactive"
- COMPOUND: "CC(C)(C)OOC(C)(C)C"
  SUBJECT_OF_TEST: "Cytochrome P450 2C19 (Homo sapiens)"
  Potency: "inactive"
- COMPOUND: "CNC(=O)Oc1ccccc1OC(C)C"
  SUBJECT_OF_TEST: "Cytochrome P450 2C19 (Homo sapiens)"
  Potency: "inactive"
- COMPOUND: "COC(=O)c1ccccc1N"
  SUBJECT_OF_TEST: "Cytochrome P450 2C19 (Homo sapiens)"
  Potency: "inactive"
- COMPOUND: "CCN(CC)CCO"
  SUBJECT_OF_TEST: "Cytochrome P450 2C19 (Homo sapiens)"
  Potency: "inactive"
- COMPOUND: "Oc1ccccc1Cl"
  SUBJECT_OF_TEST: "Cytochrome P450 2C19 (Homo sapiens)"
  Potency: "inactive"
- COMPOUND: "Nc1ccccc1C(=O)O"
  SUBJECT_OF_TEST: "Cytochrome P450 2C19 (Homo sapiens)"
  Potency: "inactive"
- COMPOUND: "Clc1ccc(Cl)cc1"
  SUBJECT_OF_TEST: "Cytochrome P450 2C19 (Homo sapiens)"
  Potency: "inactive"
- COMPOUND: "OCCN(CCO)CCO"
  SUBJECT_OF_TEST: "Cytochrome P450 2C19 (Homo sapiens)"
  Potency: "inactive"
- COMPOUND: "C1CC2OC2CC1C1CO1 (stereo not given)"
  SUBJECT_OF_TEST: "Cytochrome P450 2C19 (Homo sapiens)"
  Potency: "69.7 µM (active)"
